Molecular target: T1, MBP-Orf W50A (Bacteriophage lambda, UniProt P03765 1-146, W50A)
T1 sequence: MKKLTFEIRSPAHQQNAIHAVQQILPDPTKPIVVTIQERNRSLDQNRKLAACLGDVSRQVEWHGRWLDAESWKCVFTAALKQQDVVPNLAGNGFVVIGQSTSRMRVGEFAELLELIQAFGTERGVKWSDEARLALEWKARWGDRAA
Test: fluorescence anisotropy; apparent, per dimer; EMSA: 50 mM Tris-HCl pH 8.0, 5 mM EDTA (or 1 mM MgCl2), 1 mM DTT, 5% glycerol, 100 ug/ml BSA, on ice 15 min, 4% PAGE; anisotropy: 100 mM Tris-HCl pH 7.0, 10 nM
Details: protein: recombinant; tags: N-terminal MBP; chain copies: 2; label: 3'-fluorescein; single strand

Binder | Kd / µM
SS60-fluorescein (ssDNA) DNA: TTTGGTCTAACTTTACCGCTACTAAATGCCGCGGATTGGTTTCGCTGAATCAGGTTATTA | 3.54
